- Tested on: RSV
- Assay Summary: XTT assay, RSV-infected Vero cells
- Assay type: cell-based, Respiratory Syncytial Virus (RSV)
- Run Parameters: human respiratory syncytial virus, Vero, 144 h, read-out: XTT IC50 (uM), Table 2, Examples 83 to 124; Vero cells infected with RSV, m.o.i.≈0.2, 6 days at 33° C.
Readout Type: log10 of IC50 (log10 of the value in µM)
Annotation: log10 of IC50, µM basis.

Examples from the recorded data:
## Input I'm curious: which log10 of IC50 was measured for COc1ccccc1C(=O)NC1N=C(c2ccccc2)c2ccc(C)cc2NC1=O (stereo not drawn) tested on RSV?
## Output 0.48

## Input I'm curious: which log10 of IC50 was measured for CN(C)c1ccccc1C(=O)NC1N=C(c2ccccc2)c2ccccc2NC1=O (stereo not drawn) tested on RSV?
## Output 0.18

## Input I'm curious: which log10 of IC50 was measured for CSc1ccccc1NC(=O)NC1N=C(c2ccccc2)c2ccccc2NC1=O (stereo not drawn) tested on RSV?
## Output 0.30

---
## Input I'm curious: which log10 of IC50 was measured for COc1ccccc1C(=O)NC1N=C(c2cccc(Cl)c2)c2ccccc2NC1=O (stereo not drawn) tested on RSV?
## Output 0.00

## Input I'm curious: which log10 of IC50 was measured for COc1ccc(Cl)cc1C(=O)NC1N=C(c2ccccc2)c2ccccc2NC1=O (stereo not drawn) tested on RSV?
## Output -0.52

## Input I'm curious: which log10 of IC50 was measured for COc1cc(C(=O)NC2N=C(c3ccccc3)c3ccccc3NC2=O)ccc1[N+](=O)[O-] (stereo not drawn) tested on RSV?
## Output 0.18

## Input I'm curious: which log10 of IC50 was measured for COc1cc(Cl)ccc1C(=O)NC1N=C(c2ccccc2)c2ccccc2NC1=O (stereo not drawn) tested on RSV?
## Output -0.52

## Input I'm curious: which log10 of IC50 was measured for COc1ccccc1CCC(=O)NC1N=C(c2ccccc2)c2ccccc2NC1=O (stereo not drawn) tested on RSV?
## Output 0.70

----------
Entries and their IC50
- Tested on: RSV
- Assay Summary: XTT assay, RSV-infected Hep-2 cells
- Type: cell-based, Respiratory Syncytial Virus (RSV)
- Run Parameters: Table 2, Examples 75 to 82 and 125 to 184; Hep-2 cells infected with RSV, 6 days at 37° C.
Give the value, in units of µM, as a plain number.

Examples from the recorded data:
## Input Item under review: COc1ccc(S(N)(=O)=O)cc1C(=O)NC1N=C(c2ccccc2)c2ccccc2NC1=O (stereo not drawn) [Example 143] . Reported IC50?
## Output 3.8

## Input Item under review: COC(=O)c1ccc(C(=O)NC2N=C(c3ccccc3)c3ccccc3NC2=O)c(OC)c1 (stereo not drawn) [Example 139] . Reported IC50?
## Output 9.2

---
## Input Item under review: O=C(NC1N=C(c2ccccc2)c2ccccc2NC1=O)c1c(F)cccc1F (stereo not drawn) [Example 136] . Reported IC50?
## Output 8.7

## Input Item under review: O=C(NC1N=C(c2ccccc2)c2ccccc2NC1=O)c1cc(F)c(F)cc1F (stereo not drawn) [Example 79a] . Reported IC50?
## Output 8

## Input Item under review: O=C(Nc1cccc(Cl)c1)NC1N=C(c2ccccc2)c2ccccc2NC1=O (stereo not drawn) [Example 131] . Reported IC50?
## Output 9.6

## Input Item under review: O=C1Nc2ccc(Cl)cc2C(c2ccccc2)=NC1NC(=O)N1CCCCC1 (stereo not drawn) [Example 153] . Reported IC50?
## Output 5

## Input Item under review: COc1cc(SC)ccc1C(=O)NC1N=C(c2ccccc2)c2ccccc2NC1=O (stereo not drawn) [Example 132] . Reported IC50?
## Output 6.3

## Input Item under review: O=C(NC1N=C(c2ccccc2)c2ccccc2NC1=O)c1cnccn1 (stereo not drawn) [Example 162] . Reported IC50?
## Output 2

## Input Item under review: O=C(N[C@H]1N=C(c2ccccc2)c2ccccc2NC1=O)c1cccc2cc[nH]c12 [Example 81b] . Reported IC50?
## Output 1.2

----------
- System: RSV
- Assay Summary: XTT assay, RSV-infected Hep-2 cells
- Assay type: cell-based, Respiratory Syncytial Virus (RSV)
- Run Parameters: human respiratory syncytial virus, 144 h; Table 2, Examples 75 to 82 and 125 to 184; Hep-2 cells infected with RSV, 6 days at 37° C.
Rule: IC50 below 7 µM gives Met, anything at or above gives Not met.

## Input Dear reviewer, please state whether O=C(NC1CCCCC1)NC1N=C(c2ccccc2)c2ccccc2NC1=O (stereo not drawn) has IC50 strictly beneath 7 µM.
## Output Met

## Input Dear reviewer, please state whether Cc1ccc2c(c1)NC(=O)C(NC(=O)c1cccs1)N=C2c1ccccc1 (stereo not drawn) has IC50 strictly beneath 7 µM.
## Output Met

## Input Dear reviewer, please state whether O=C(N[C@H]1N=C(c2ccccc2)c2ccccc2NC1=O)c1cc(F)c(F)cc1F [Example 79b] has IC50 strictly beneath 7 µM.
## Output Met

## Input Dear reviewer, please state whether COc1cc(N)c(Cl)cc1C(=O)NC1N=C(c2ccccc2)c2ccccc2NC1=O (stereo not drawn) has IC50 strictly beneath 7 µM.
## Output Met

---
## Input Dear reviewer, please state whether COc1ccc(C(C)(C)C)cc1C(=O)NC1N=C(c2ccccc2)c2ccccc2NC1=O (stereo not drawn) has IC50 strictly beneath 7 µM.
## Output Met

## Input Dear reviewer, please state whether COc1cc(S(C)(=O)=O)ccc1C(=O)N[C@H]1N=C(c2ccccc2)c2ccccc2NC1=O [Example 75b] has IC50 strictly beneath 7 µM.
## Output Met

## Input Dear reviewer, please state whether CCCOc1ccccc1C(=O)NC1N=C(c2ccccc2)c2ccccc2NC1=O (stereo not drawn) has IC50 strictly beneath 7 µM.
## Output Not met

## Input Dear reviewer, please state whether O=C(Nc1ccsc1)NC1N=C(c2ccccc2)c2ccccc2NC1=O (stereo not drawn) has IC50 strictly beneath 7 µM.
## Output Met

## Input Dear reviewer, please state whether COC(=O)NC1N=C(c2ccccc2)c2ccccc2NC1=O (stereo not drawn) has IC50 strictly beneath 7 µM.
## Output Not met

## Input Dear reviewer, please state whether CCNC(=O)NC1N=C(c2ccccc2)c2ccccc2NC1=O (stereo not drawn) has IC50 strictly beneath 7 µM.
## Output Met

## Input Dear reviewer, please state whether O=C(NC1N=C(c2ccccc2)c2ccccc2NC1=O)c1ccccn1 (stereo not drawn) has IC50 strictly beneath 7 µM.
## Output Met

## Input Dear reviewer, please state whether COc1cc2ccccc2cc1C(=O)NC1N=C(c2ccccc2)c2ccccc2NC1=O (stereo not drawn) [Example 82a] has IC50 strictly beneath 7 µM.
## Output Met

## Input Dear reviewer, please state whether O=C(NC1N=C(c2ccccc2)c2ccc(Cl)cc2NC1=O)C1CCCCC1 (stereo not drawn) has IC50 strictly beneath 7 µM.
## Output Met

## Input Dear reviewer, please state whether O=C(NC1N=C(c2ccccc2)c2ccccc2NC1=O)c1cccc2cc[nH]c12 (stereo not drawn) [Example 81a] has IC50 strictly beneath 7 µM.
## Output Not met

----------
Entries and their TC50 (6d)
- Test system: Hep-2 cells
- Assay Summary: Toxicity studies (XTT), Hep-2 cells
- Type: cell-based
- Set-up: unit not given beside the values
- Run Parameters: Table 2, Examples 75 to 82 and 125 to 184, 6d, in µM
Give the figure only, with no unit attached.

Examples from the recorded data:
## Input Item under review: O=C(NC1N=C(c2ccccc2)c2ccccc2NC1=O)c1ccccc1O (stereo not drawn) [Example 80a] . Reported TC50 (6d)?
## Output 33

## Input Item under review: CN(C)c1ccc(C(=O)NC2N=C(c3ccccc3)c3ccccc3NC2=O)cn1 (stereo not drawn) . Reported TC50 (6d)?
## Output 60

## Input Item under review: COc1cc(C(F)(F)F)ccc1C(=O)N[C@H]1N=C(c2ccccc2)c2ccccc2NC1=O . Reported TC50 (6d)?
## Output 32.5

---
## Input Item under review: O=C(NC1N=C(c2ccccc2)c2ccccc2NC1=O)c1ccccn1 (stereo not drawn) . Reported TC50 (6d)?
## Output 137.8

## Input Item under review: Cc1ccc2c(c1)NC(=O)C(NC(=O)c1cccs1)N=C2c1ccccc1 (stereo not drawn) . Reported TC50 (6d)?
## Output 30

----------
- Tested on: RSV
- Assay Summary: XTT assay, RSV-infected Vero cells
- Type: cell-based, Respiratory Syncytial Virus (RSV)
- Run Parameters: human respiratory syncytial virus, Vero, 144 h, read-out: XTT IC50 (uM), Table 2, Examples 83 to 124; Vero cells infected with RSV, m.o.i.≈0.2, 6 days at 33° C.
Entries and their IC50
Give the value, in units of µM, as a plain number.

## Input I'm curious: which IC50 was measured for COc1ccc(CCC(=O)NC2N=C(c3ccccc3)c3ccccc3NC2=O)cc1 (stereo not shown) tested on RSV?
## Output 5

## Input I'm curious: which IC50 was measured for O=C(Nc1c(Cl)cccc1Cl)NC1N=C(c2ccccc2)c2ccccc2NC1=O (stereo not shown) tested on RSV?
## Output 5

## Input I'm curious: which IC50 was measured for COc1cccc(C2=NC(NC(=O)c3ccccc3OC)C(=O)Nc3ccccc32)c1 (stereo not shown) tested on RSV?
## Output 2

## Input I'm curious: which IC50 was measured for O=C(NCc1ccccc1F)NC1N=C(c2ccccc2)c2ccccc2NC1=O (stereo not shown) tested on RSV?
## Output 2

## Input I'm curious: which IC50 was measured for Cc1cccc(CNC(=O)NC2N=C(c3ccccc3)c3ccccc3NC2=O)c1 (stereo not shown) tested on RSV?
## Output 3

---
## Input I'm curious: which IC50 was measured for O=C(NC1N=C(c2ccccc2)c2ccccc2NC1=O)OCc1ccccc1 (stereo not shown) tested on RSV?
## Output 5

## Input I'm curious: which IC50 was measured for COc1ccc(C(=O)NC2N=C(c3ccccc3F)c3cc(Cl)ccc3NC2=O)cc1 (stereo not shown) tested on RSV?
## Output 6

All values here come from patent US8119630B2.
